molecular target: JAK1 (Homo sapiens); construct: 5 μl of catalytic domain recombinant Kinase enzyme+Tyr peptide substrate (Invitrogen, CA); experiment: Z'-LYTE kinase assay JAK1
Sequence (P23458 875-1153 limits assumed): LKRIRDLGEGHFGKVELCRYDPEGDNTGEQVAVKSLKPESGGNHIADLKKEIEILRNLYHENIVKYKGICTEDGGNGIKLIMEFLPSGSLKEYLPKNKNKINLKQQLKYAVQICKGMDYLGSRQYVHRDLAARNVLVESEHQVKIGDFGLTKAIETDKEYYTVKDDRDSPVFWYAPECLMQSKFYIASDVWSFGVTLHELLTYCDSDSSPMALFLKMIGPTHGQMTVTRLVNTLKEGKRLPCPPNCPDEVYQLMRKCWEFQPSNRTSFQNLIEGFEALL
readout_kind: IC50

- compound: "C#CCNc1cc(Nc2ccc(C3CCOCC3)cc2)ncc1C(N)=O [Example 184]"
  tested_target: "JAK1 (Homo sapiens)"
  IC50: "> 1 µM"
- compound: "CN(C(=O)C1CC1)c1ccc(Nc2cc(NCc3cccc4ccsc34)c(C(N)=O)cn2)cc1 [Example 467]"
  tested_target: "JAK1 (Homo sapiens)"
  IC50: "0.1 to 1 µM"
- compound: "CC(=O)Nc1cccc(Nc2cc(NC3(c4ccccc4)CC3)c(C(N)=O)cn2)c1 [Example 135]"
  tested_target: "JAK1 (Homo sapiens)"
  IC50: "> 1 µM"

Consider the additional compound presented here.
Lookup: // lookup IC50 for CC(=O)N1CCC[C@H](CNc2cc(Nc3ccc(C(=O)N(C)C)c(C(F)(F)F)c3)ncc2C(N)=O)C1 [Example 274]
Found: > 1 µM

From: patent US20150353495A1
